target: Kappa-type opioid receptor (Homo sapiens, UniProt P41145); test: Antagonist activity at human kappa opioid receptor expressed in CHO cells by [35S]GTP-gamma-S binding assay; assay type: functional, cell-based
Sequence (P41145 whole entry): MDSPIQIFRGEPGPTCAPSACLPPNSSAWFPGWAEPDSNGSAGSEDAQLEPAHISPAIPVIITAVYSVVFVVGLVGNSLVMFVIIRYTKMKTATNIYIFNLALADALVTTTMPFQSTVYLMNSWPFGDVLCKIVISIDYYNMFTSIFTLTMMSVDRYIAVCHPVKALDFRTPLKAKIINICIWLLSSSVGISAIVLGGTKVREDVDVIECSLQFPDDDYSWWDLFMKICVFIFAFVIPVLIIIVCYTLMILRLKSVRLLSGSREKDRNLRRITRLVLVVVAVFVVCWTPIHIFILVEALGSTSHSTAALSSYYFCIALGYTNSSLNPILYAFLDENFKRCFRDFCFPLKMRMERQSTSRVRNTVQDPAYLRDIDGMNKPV
Overview of recorded Ki for various compounds
Report the value in nM with no unit label.

Sample records with Ki:
NC(=O)c1ccc(Oc2ccc(CNCCc3ccccc3)cc2)cc1; 1.22
NC(=O)c1ccc(Oc2ccc(CCNCCc3ccccc3)cc2)nc1; 23.3

Next:
Please fill in: Ki reported for `NC(=O)c1ccc(Oc2ccc(CNCCc3ccccc3)cc2)cn1` = 9.6

---

biological target: Mu-type opioid receptor (Homo sapiens); test: Displacement of [3H]diprenorphine from human mu opioid receptor expressed in CHO cells in presence of high sodium by SPA; type: cell-based
Sequence (P35372 whole entry): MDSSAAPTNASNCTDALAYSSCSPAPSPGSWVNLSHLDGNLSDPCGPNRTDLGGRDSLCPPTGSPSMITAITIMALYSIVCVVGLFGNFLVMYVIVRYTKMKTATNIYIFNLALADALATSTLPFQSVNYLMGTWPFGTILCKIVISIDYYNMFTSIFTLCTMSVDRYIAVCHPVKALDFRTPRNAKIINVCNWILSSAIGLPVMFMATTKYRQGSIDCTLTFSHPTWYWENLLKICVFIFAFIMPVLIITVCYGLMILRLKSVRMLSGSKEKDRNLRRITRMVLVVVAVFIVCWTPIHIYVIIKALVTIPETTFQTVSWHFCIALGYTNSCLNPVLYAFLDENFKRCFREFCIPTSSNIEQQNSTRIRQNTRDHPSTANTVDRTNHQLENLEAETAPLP
measure: pKi
In simple prose, pKi is minus the logarithm base ten of a concentration in moles per litre.

CCNC(=O)c1ccc(Oc2ccc(CNCCc3ccccc3)cc2)nc1; 7.24

Per the reported Mu-type opioid receptor (Homo sapiens) data, `NC(=O)c1cccc(Oc2ccc(CCNCc3ccccc3)cc2)n1` has pKi of 6.19

Per the reported Mu-type opioid receptor (Homo sapiens) data, `CNC(=O)c1ccc(Oc2ccc(CNCCc3ccccc3)cc2)nc1` has pKi of 7.28
